condition context: in isopropanol, 303.15 K
quantity measured: solubility (mole fraction)

# solubility (mole fraction) lookup, item Clc1ncnc2[nH]ccc12
0.0198

---

condition context: in toluene, 303.15 K
quantity measured: solubility (mole fraction)
Kindly provide the number alone.

Fill in the blank: the reported solubility (mole fraction) of Clc1ncnc2[nH]ccc12 is ____.
0.00225

---

condition context: in isopropanol, 288.15 K
quantity measured: solubility (mole fraction)

Consider the compound shown here: Clc1ncnc2[nH]ccc12 What is its recorded solubility (mole fraction)?
0.0131

---

condition context: in ethyl acetate, 283.15 K
quantity measured: solubility (mole fraction)

What measured solubility (mole fraction) goes with Clc1ncnc2[nH]ccc12 ?
0.0151
